Biological target: BTK-GFP (Homo sapiens, UniProt Q06187+Q96SW2)
Construct: expressed in transfected cells; host or cells: HEK293A (Invitrogen R70507), lentiviral transduction with pLenti6-BTK-GFP-Ires-RFP, blasticidin selection
Sequence (Q06187 whole entry): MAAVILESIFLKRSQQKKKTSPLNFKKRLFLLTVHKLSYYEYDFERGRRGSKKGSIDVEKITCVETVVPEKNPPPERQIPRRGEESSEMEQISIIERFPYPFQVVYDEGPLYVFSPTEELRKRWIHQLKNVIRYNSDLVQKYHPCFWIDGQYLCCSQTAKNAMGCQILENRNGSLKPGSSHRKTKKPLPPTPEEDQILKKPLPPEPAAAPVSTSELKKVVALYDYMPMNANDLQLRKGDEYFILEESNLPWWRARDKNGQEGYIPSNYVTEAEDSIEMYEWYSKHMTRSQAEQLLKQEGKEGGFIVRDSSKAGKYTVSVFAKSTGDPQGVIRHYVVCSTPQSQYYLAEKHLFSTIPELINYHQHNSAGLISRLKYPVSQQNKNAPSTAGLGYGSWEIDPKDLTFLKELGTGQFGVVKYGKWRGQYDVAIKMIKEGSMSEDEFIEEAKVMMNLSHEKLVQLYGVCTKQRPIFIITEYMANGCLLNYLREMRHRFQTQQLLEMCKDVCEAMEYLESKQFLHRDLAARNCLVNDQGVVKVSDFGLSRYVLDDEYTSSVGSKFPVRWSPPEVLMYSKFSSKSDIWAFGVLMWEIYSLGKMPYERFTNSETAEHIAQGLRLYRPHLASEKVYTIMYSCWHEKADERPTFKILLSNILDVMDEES
Sequence (Q96SW2 whole entry): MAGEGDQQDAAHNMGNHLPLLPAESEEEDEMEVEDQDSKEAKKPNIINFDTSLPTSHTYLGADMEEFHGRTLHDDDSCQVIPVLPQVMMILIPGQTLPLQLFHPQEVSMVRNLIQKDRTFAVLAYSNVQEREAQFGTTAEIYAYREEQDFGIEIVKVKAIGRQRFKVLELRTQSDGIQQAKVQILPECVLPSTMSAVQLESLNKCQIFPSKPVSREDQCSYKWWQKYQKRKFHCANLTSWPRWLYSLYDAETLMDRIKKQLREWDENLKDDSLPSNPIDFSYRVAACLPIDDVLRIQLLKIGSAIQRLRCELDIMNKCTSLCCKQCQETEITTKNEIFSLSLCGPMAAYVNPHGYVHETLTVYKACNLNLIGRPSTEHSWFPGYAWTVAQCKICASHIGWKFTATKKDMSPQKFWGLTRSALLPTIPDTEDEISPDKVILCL
Sequence (Q16531 whole entry partner): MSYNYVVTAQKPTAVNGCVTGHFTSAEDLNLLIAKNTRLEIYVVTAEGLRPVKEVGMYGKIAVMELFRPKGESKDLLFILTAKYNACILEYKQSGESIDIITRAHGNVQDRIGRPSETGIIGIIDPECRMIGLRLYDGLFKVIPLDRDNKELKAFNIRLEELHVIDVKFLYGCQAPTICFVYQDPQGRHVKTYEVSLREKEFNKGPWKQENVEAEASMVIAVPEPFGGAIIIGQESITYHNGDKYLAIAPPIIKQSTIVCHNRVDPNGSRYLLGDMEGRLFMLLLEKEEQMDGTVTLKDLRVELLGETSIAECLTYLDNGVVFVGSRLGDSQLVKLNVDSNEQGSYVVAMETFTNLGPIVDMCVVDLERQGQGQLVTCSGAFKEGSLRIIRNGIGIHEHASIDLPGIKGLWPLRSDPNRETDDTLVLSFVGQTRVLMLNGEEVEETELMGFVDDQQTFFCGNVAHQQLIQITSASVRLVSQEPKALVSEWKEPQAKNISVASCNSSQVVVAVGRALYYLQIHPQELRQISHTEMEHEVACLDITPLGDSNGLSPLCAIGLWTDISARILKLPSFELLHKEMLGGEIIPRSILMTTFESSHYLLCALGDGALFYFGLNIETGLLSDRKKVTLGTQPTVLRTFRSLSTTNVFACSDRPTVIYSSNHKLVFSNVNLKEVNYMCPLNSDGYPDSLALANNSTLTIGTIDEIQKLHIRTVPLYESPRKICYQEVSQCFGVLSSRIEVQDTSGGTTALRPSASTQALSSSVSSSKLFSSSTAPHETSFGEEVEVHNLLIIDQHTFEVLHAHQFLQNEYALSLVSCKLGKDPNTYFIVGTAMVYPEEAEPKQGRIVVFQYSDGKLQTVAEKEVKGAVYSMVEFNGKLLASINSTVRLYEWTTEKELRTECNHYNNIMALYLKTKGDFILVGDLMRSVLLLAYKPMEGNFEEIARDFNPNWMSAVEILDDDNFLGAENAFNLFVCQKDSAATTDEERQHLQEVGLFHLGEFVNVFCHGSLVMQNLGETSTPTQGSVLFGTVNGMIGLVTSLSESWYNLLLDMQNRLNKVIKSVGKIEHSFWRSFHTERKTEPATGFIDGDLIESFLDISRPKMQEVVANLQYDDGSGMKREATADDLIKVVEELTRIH
Assay: BTK-GFP protein abundance flow cytometry assay in HEK293A cells
Format: cell-based
Conditions: HEK293A BTK-GFP-iresRFP cells, 24 h; % protein remaining at the concentration at which maximum degradation is seen
Description: Compounds of the invention were tested in the following cellular assays. […] Degradation of BTK or IKZF3 was measured in HEK293A cells (Invitrogen R70507) expressing either BTK-GFP and RFP or IKZF3-GFP and RFP from a stably integrated bicistronic BTK-GFP-iresRFP or IKZF3-GFP-iresRFP construct, respectively. Reduction of the GFP signal measured by flow cytometry served as readout for BTK or IKZF3 degradation after degrader treatment. […]
measured attribute: BTK deg Amax (%)

Asked: Any idea what its BTK deg Amax is? The compound is `Cc1cc(F)c(C(=O)N(C)CCCCCNCc2ccc(-c3cc4c(-c5cc(F)cc(NC(=O)c6ccc(C(C)(C)O)cc6F)c5C)ncnc4[nH]3)cc2)cc1N1CCC(=O)NC1=O`
Given back: 12.1

Asked: # repeat for `COc1ccc(C(=O)N2CCC(CCCN3CCC(Oc4ccc(-c5cc6c(-c7cc(F)cc(NC(=O)c8ccc(C(C)(C)O)cc8F)c7C)ncnc6[nH]5)cc4)CC3)CC2)cc1N1CCC(=O)NC1=O`
Given back: 1.6

P: COc1ccc(C(=O)NCCN2CCC3(CC2)CCN(Cc2ccc(-c4cc5c(-c6cc(F)cc(NC(=O)c7ccc(C(C)(C)O)cc7F)c6C)ncnc5[nH]4)cc2)CC3)cc1N1CCC(=O)NC1=O
Q: COc1ccc(C(=O)N2CCC(C(=O)N3CCN(Cc4ccc(-c5cc6c(-c7cc(F)cc(NC(=O)c8ccc(C(C)(C)O)cc8F)c7C)ncnc6[nH]5)cc4)CC3)CC2)cc1N1CCC(=O)NC1=O
R: COc1ccc(C(=O)N2CCC(OC3CCN(CCc4ccc(-c5cc6c(-c7cc(F)cc(NC(=O)c8ccc(C(C)(C)O)cc8F)c7C)ncnc6[nH]5)cc4)CC3)CC2)cc1N1CCC(=O)NC1=O
Asked: Your job: order these 3 records by BTK deg Amax, ascending. Provide your answer as the labels ordered per the instruction.
Given back: R, Q, P
(R: 1.7%, Q: 5.9%, P: 48.4%)

====

target: BTK-GFP (Homo sapiens, UniProt Q06187+Q96SW2); construct: expressed in transfected cells; host or cells: HEK293A (Invitrogen R70507), lentiviral transduction with pLenti6-BTK-GFP-Ires-RFP, blasticidin selection; assay: BTK-GFP protein abundance flow cytometry assay in HEK293A cells; format: cell-based; details: HEK293A BTK-GFP-iresRFP cells, 24 h, GFP signal by flow cytometry; concentration at which 50% maximal degradation was observed
measured attribute: DC50 (µM)

Known DC50 results, listed for orientation:
Asked: Any idea what its DC50 is? The compound is `COc1ccc(C(=O)N2CCN(C(=O)N3CCN(Cc4ccc(-c5cc6c(-c7cc(F)cc(NC(=O)c8ccc(C(C)(C)O)cc8F)c7C)ncnc6[nH]5)cc4)CC3)CC2)cc1N1CCC(=O)NC1=O`
Given back: 0.0237

Asked: # repeat for `COc1ccc(C(=O)N2CCN(CCN3CCC(COc4ccc(-c5cc6c(-c7cc(F)cc(NC(=O)c8ccc(C(C)(C)O)cc8F)c7C)ncnc6[nH]5)cc4)CC3)CC2)cc1N1CCC(=O)NC1=O`
Given back: 0.0008

Asked: # repeat for `COc1ccc(C(=O)N2CCN(CCNCCCCOc3ccc(-c4cc5c(-c6cc(F)cc(NC(=O)c7ccc(C(C)(C)O)cc7F)c6C)ncnc5[nH]4)cc3)CC2)cc1N1CCC(=O)NC1=O`
Given back: 0.037

A: COc1ccc(C(=O)N2CCC3(CCN(CCCc4ccc(-c5cc6c(-c7cc(F)cc(NC(=O)c8ccc(C(C)(C)O)cc8F)c7C)ncnc6[nH]5)cc4)CC3)CC2)cc1N1CCC(=O)NC1=O
B: Cc1c(NC(=O)c2ccc(C(C)(C)O)cc2F)cc(F)cc1-c1ncnc2[nH]c(-c3ccc(CNCCCCCN(C)C(=O)c4ccc(Cl)c(N5CCC(=O)NC5=O)c4)cc3)cc12
Asked: Lab note: check whether A or B has the lower measured DC50. I would appreciate it if you answered with the label of your choice.
Given back: A

P: COc1ccc(C(=O)N2CCC3(CCN(Cc4ccc(-c5cc6c(-c7cc(F)cc(NC(=O)c8ccc(C(C)(C)O)cc8F)c7C)ncnc6[nH]5)cc4)CC3)C(CO)C2)cc1N1CCC(=O)NC1=O (racemic)
Q: COc1ccc(C(=O)NCCN2CCC3(CCN(Cc4ccc(-c5cc6c(-c7cc(F)cc(NC(=O)c8ccc(C(C)(C)O)cc8F)c7C)ncnc6[nH]5)cc4)CC3)C2)cc1N1CCC(=O)NC1=O
R: Cc1ccc(C(=O)N(C)CCCCCNCc2ccc(-c3cc4c(-c5cc(F)cc(NC(=O)c6ccc(C(C)(C)O)cc6F)c5C)ncnc4[nH]3)cc2)cc1N1CCC(=O)NC1=O
Asked: Please list the entries, largest DC50 first. Provide your answer as the labels ordered per the instruction.
Given back: Q, R, P

A: Cc1cc(F)c(C(=O)N(C)CCCCCNCc2ccc(-c3cc4c(-c5cc(F)cc(NC(=O)c6ccc(C(C)(C)O)cc6F)c5C)ncnc4[nH]3)cc2)cc1N1CCC(=O)NC1=O
B: COc1ccc(C(=O)N2CCC(CN3CCC(Oc4ccc(-c5cc6c(-c7cc(F)cc(NC(=O)c8ccc(C(C)(C)O)cc8F)c7C)ncnc6[nH]5)cc4)CC3)CC2)cc1N1CCC(=O)NC1=O
Asked: Which value of DC50 is greater, the one for A or the one for B ? I would appreciate it if you answered with the label of your choice.
Given back: A

====

target: BTK-GFP (Homo sapiens, UniProt Q06187+Q96SW2); construct: expressed in transfected cells; host or cells: HEK293A (Invitrogen R70507), lentiviral transduction with pLenti6-BTK-GFP-Ires-RFP, blasticidin selection; assay: BTK-GFP protein abundance flow cytometry assay in HEK293A cells; format: cell-based; conditions: HEK293A BTK-GFP-iresRFP cells, 24 h, GFP signal by flow cytometry; concentration at which 50% maximal degradation was observed
measured attribute: DC50 (nM)

Asked: Any idea what its DC50 is? The molecule is `COc1ccc(C(=O)NCCCCN2CCN(Cc3ccc(-c4cc5c(-c6cc(F)cc(NC(=O)c7ccc(C(C)(C)O)cc7F)c6C)ncnc5[nH]4)cc3)CC2)cc1N1CCC(=O)NC1=O`
Given back: 25

Asked: # repeat for `COc1ccc(C(=O)NCCN2CCC3(CC2)CCN(Cc2ccc(-c4cc5c(-c6cc(F)cc(NC(=O)c7ccc(C(C)(C)O)cc7F)c6C)ncnc5[nH]4)cc2)C3)cc1N1CCC(=O)NC1=O`
Given back: 61.1

Asked: # repeat for COc1ccc(C(=O)N2CCC3(CCN(Cc4ccc(-c5cc6c(-c7cc(F)cc(NC(=O)c8ccc(C(C)(C)O)cc8F)c7C)ncnc6[nH]5)cc4)C[C@H]3CO)CC2)cc1N1CCC(=O)NC1=O (single isomer, unassigned)
Given back: 78.4

P: Cc1ccc(C(=O)N2CCC(OC3CCN(CCc4ccc(-c5cc6c(-c7cc(F)cc(NC(=O)c8ccc(C(C)(C)O)cc8F)c7C)ncnc6[nH]5)cc4)CC3)CC2)cc1N1CCC(=O)NC1=O
Q: COc1ccc(C(=O)N2CCC3(CC2)CCN(C(C)(C)Cc2ccc(-c4cc5c(-c6cc(F)cc(NC(=O)c7ccc(C(C)(C)O)cc7F)c6C)ncnc5[nH]4)cc2)CC3)cc1N1CCC(=O)NC1=O
Asked: Lab note: check whether P or Q has the lower measured DC50. I would appreciate it if you answered with the label of your choice.
Given back: P
(P: 0.7 nM, Q: 2 nM)

1: COc1ccc(C(=O)N2CCC3(CCN(Cc4ccc(-c5cc6c(-c7cc(F)cc(NC(=O)c8ccc(C(C)(C)O)cc8F)c7C)ncnc6[nH]5)cc4)CC3CO)CC2)cc1N1CCC(=O)NC1=O (racemic)
2: COc1ccc(C(=O)N2CCC(CCN3CCC(Oc4ccc(-c5cc6c(-c7cc(F)cc(NC(=O)c8ccc(C(C)(C)O)cc8F)c7C)ncnc6[nH]5)cc4)CC3)CC2)cc1N1CCC(=O)NC1=O
3: Cc1c(NC(=O)c2ccc(C(C)(C)O)cc2F)cc(F)cc1-c1ncnc2[nH]c(-c3ccc(CN4CCC5(CC4)CN(CCCNC(=O)c4ccc(Cl)c(N6CCC(=O)NC6=O)c4)CCO5)cc3)cc12
4: COc1ccc(C(=O)NCCN2CCOC3(CCN(Cc4ccc(-c5cc6c(-c7cc(F)cc(NC(=O)c8ccc(C(C)(C)O)cc8F)c7C)ncnc6[nH]5)cc4)CC3)C2)cc1N1CCC(=O)NC1=O
Asked: Please list the entries, largest DC50 first. Provide your answer as the labels ordered per the instruction.
Given back: 4, 1, 3, 2

These data points were gathered from patent US12441733B2.
